# test-protocol: Trained sensory panel rating of sweetness and bitterness intensity, Example 2 (measured values, S/B)
# Assay type: in vivo
# study-conditions: 400 ppm; sweetness/bitterness ratio
measured-quantity: Measured S/B
Could you respond with only the numeric value?

Enquiry: # get_value(readout='Measured S/B', item= C=C1C[C@@]23CC[C@H]4[C@@](C)(CCC[C@@]4(C)C(=O)O[C@@H]4O[C@H](CO)[C@@H](O)[C@H](O[C@@H]5O[C@H](CO)[C@@H](O)[C@H](O)[C@H]5O)[C@H]4O[C@@H]4O[C@H](CO)[C@@H](O)[C@H](O)[C@H]4O)[C@@H]2CC[C@]1(O[C@@H]1O[C@H](CO)[C@@H](O)[C@H](O[C@@H]2O[C@H](CO)[C@@H](O)[C@H](O)[C@H]2O)[C@H]1O[C@@H]1O[C@H](CO)[C@@H](O)[C@H](O)[C@H]1O)C3 [Reb M, Rebaudioside M] )
Return: 2.14

====

# test-protocol: Trained sensory panel rating of sweetness and bitterness intensity, Example 2 (measured values, S/B)
# Type: in vivo
# study-conditions: 400 ppm, citric acid buffer; scale 1-15
List of Measured Sweetness values.
Could you respond with only the numeric value?

| compound | Measured Sweetness |
| --- | --- |
| C=C1C[C@@]23CC[C@H]4[C@@](C)(CCC[C@@]4(C)C(=O)O[C@@H]4O[C@H](CO)[C@@H](O)[C@H](O)[C@H]4O)[C@@H]2CC[C@]1(O[C@@H]1O[C@H](CO)[C@@H](O)[C@H](O[C@@H]2O[C@H](CO)[C@@H](O)[C@H](O)[C@H]2O)[C@H]1O)C3 [Reb G, Rebaudioside G] | 2.17 |
| C=C1C[C@@]23CC[C@H]4[C@@](C)(CCC[C@@]4(C)C(=O)O[C@@H]4O[C@H](CO)[C@@H](O)[C@H](O[C@@H]5O[C@H](CO)[C@@H](O)[C@H](O)[C@H]5O)[C@H]4O[C@@H]4O[C@@H](C)[C@H](O)[C@@H](O[C@@H]5O[C@H](CO)[C@@H](O)[C@H](O)[C@H]5O)[C@H]4O)[C@@H]2CC[C@]1(O[C@@H]1O[C@H](CO)[C@@H](O)[C@H](O[C@@H]2O[C@H](CO)[C@@H](O)[C@H](O)[C@H]2O)[C@H]1O[C@@H]1O[C@H](CO)[C@@H](O)[C@H](O)[C@H]1O)C3 [Reb O, Rebaudioside O] | 7.47 |
| C=C1C[C@@]23CC[C@H]4[C@@](C)(CCC[C@@]4(C)C(=O)O[C@@H]4O[C@H](CO)[C@@H](O)[C@H](O)[C@H]4O[C@@H]4O[C@H](CO)[C@@H](O)[C@H](O)[C@H]4O)[C@@H]2CC[C@]1(O[C@@H]1O[C@H](CO)[C@@H](O)[C@H](O[C@@H]2O[C@H](CO)[C@@H](O)[C@H](O)[C@H]2O)[C@H]1O[C@@H]1O[C@H](CO)[C@@H](O)[C@H](O)[C@H]1O)C3 [Reb D, Rebaudioside D] | 7.08 |
| C=C1C[C@@]23CC[C@H]4[C@@](C)(CCC[C@@]4(C)C(=O)O[C@@H]4O[C@H](CO)[C@@H](O)[C@H](O[C@@H]5O[C@H](CO)[C@@H](O)[C@H](O)[C@H]5O)[C@H]4O[C@@H]4O[C@@H](C)[C@H](O)[C@@H](O)[C@H]4O)[C@@H]2CC[C@]1(O[C@@H]1O[C@H](CO)[C@@H](O)[C@H](O[C@@H]2O[C@H](CO)[C@@H](O)[C@H](O)[C@H]2O)[C@H]1O[C@@H]1O[C@H](CO)[C@@H](O)[C@H](O)[C@H]1O)C3 [Reb N, Rebaudioside N] | 7.44 |

Enquiry: # get_value(readout='Measured Sweetness', item= C=C1C[C@@]23CC[C@H]4[C@@](C)(CCC[C@@]4(C)C(=O)O[C@@H]4O[C@H](CO)[C@@H](O)[C@H](O)[C@H]4O[C@@H]4O[C@H](CO)[C@@H](O)[C@H](O)[C@H]4O)[C@@H]2CC[C@]1(O[C@@H]1O[C@H](CO)[C@@H](O)[C@H](O)[C@H]1O[C@@H]1O[C@H](CO)[C@@H](O)[C@H](O)[C@H]1O)C3 [Reb E, Rebaudioside E] )
Return: 4.53

====

# test-protocol: Trained sensory panel rating of sweetness and bitterness intensity, Example 2 (measured values, S/B)
# Assay type: in vivo
# study-conditions: 600 ppm, citric acid buffer; scale 1-15
List of Measured Sweetness values.

Here are 2 molecules together with their reported answers.
| molecule | Measured Sweetness |
| --- | --- |
| C=C1C[C@@]23CC[C@H]4[C@@](C)(CCC[C@@]4(C)C(=O)O[C@@H]4O[C@H](CO)[C@@H](O)[C@H](O[C@@H]5O[C@H](CO)[C@@H](O)[C@H](O)[C@H]5O)[C@H]4O[C@@H]4O[C@@H](C)[C@H](O)[C@@H](O[C@@H]5O[C@H](CO)[C@@H](O)[C@H](O)[C@H]5O)[C@H]4O)[C@@H]2CC[C@]1(O[C@@H]1O[C@H](CO)[C@@H](O)[C@H](O[C@@H]2O[C@H](CO)[C@@H](O)[C@H](O)[C@H]2O)[C@H]1O[C@@H]1O[C@H](CO)[C@@H](O)[C@H](O)[C@H]1O)C3 [Reb O, Rebaudioside O] | 7.669 |
| C=C1C[C@@]23CC[C@H]4[C@@](C)(CCC[C@@]4(C)C(=O)O[C@@H]4O[C@H](CO)[C@@H](O)[C@H](O[C@@H]5O[C@H](CO)[C@@H](O)[C@H](O)[C@H]5O)[C@H]4O[C@@H]4O[C@H](CO)[C@@H](O)[C@H](O)[C@H]4O)[C@@H]2CC[C@]1(O[C@@H]1O[C@H](CO)[C@@H](O)[C@H](O[C@@H]2O[C@H](CO)[C@@H](O)[C@H](O)[C@H]2O)[C@H]1O[C@@H]1O[C@H](CO)[C@@H](O)[C@H](O)[C@H]1O)C3 [Reb M, Rebaudioside M] | 8.38 |

Enquiry: # get_value(readout='Measured Sweetness', item= C=C1C[C@@]23CC[C@H]4[C@@](C)(CCC[C@@]4(C)C(=O)O[C@@H]4O[C@H](CO)[C@@H](O)[C@H](O)[C@H]4O[C@@H]4O[C@H](CO)[C@@H](O)[C@H](O)[C@H]4O)[C@@H]2CC[C@]1(O[C@@H]1O[C@H](CO)[C@@H](O)[C@H](O)[C@H]1O[C@@H]1O[C@H](CO)[C@@H](O)[C@H](O)[C@H]1O)C3 [Reb E, Rebaudioside E] )
Return: 6.29
